Reference source: PubChem BioAssay AID2060896

Tested on: 941728-121-R-J1-PDC complex spheroid viability;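 note: spheroids exposed to compounds for 7 days before readout; 100% = DMSO vehicle control viability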
Assay: Anticancer human tumor 941728-121-R-J1-PDC patient-derived lung adenocarcinoma cell line growth inhibition [RAS]
Conditions: second compound 0.000949 µM; first compound 3.16 µM; hits give low values
ASSAY_ENDPOINT: viability, T/C (%)
Output spec: scalar in %, unitless text.

Query block: Annotate the compound C[C@@H](NC(=O)c1ncnc(N)c1Cl)c1ncc(C(=O)Nc2cc(C(F)(F)F)c(Cl)cn2)s1 + CCn1c(-c2cc(N3CCN(C)CC3)cnc2C(C)OC)c2c3cc(ccc31)-c1csc(n1)CC(NC(=O)C1CC1C)C(=O)N1CCCC(N1)C(=O)OCC(C)(C)C2 with its measured viability, T/C.
Result block: 33.6

Query block: Annotate the compound Cc1nc(N2CCC3(CC2)COC(C)C3N)c(CO)nc1Sc1ccnc(N)c1Cl (configuration not stated) + CCn1c(-c2cccnc2C(C)OC)c2c3cc(ccc31)N1CCOC(CC(NC(=O)C(C(C)C)N(C)C(=O)C3(F)CCN(C(=O)C#CC(C)(C)N(C)C)CC3)C(=O)N3CCCC(N3)C(=O)OCC(C)(C)C2)C1 with its measured viability, T/C.
Result block: 19.1

Query block: Annotate the compound CC(=O)OC12COC1CC(O)C1(C)C(=O)C(O)C3=C(C)C(OC(=O)C(O)C(NC(=O)OC(C)(C)C)c4ccccc4)CC(O)(C(OC(=O)c4ccccc4)C21)C3(C)C (configuration not stated) + CCn1c(-c2cc(N3CCN(C)CC3)cnc2C(C)OC)c2c3cc(ccc31)-c1csc(n1)CC(NC(=O)C1CC1C)C(=O)N1CCCC(N1)C(=O)OCC(C)(C)C2 with its measured viability, T/C.
Result block: 21.3

Query block: Annotate the compound CC(C)NCC(C(=O)N1CCN(c2ncnc3c2C(C)CC3O)CC1)c1ccc(Cl)cc1 (configuration not stated) + CCn1c(-c2cccnc2C(C)OC)c2c3cc(ccc31)N1CCOC(CC(NC(=O)C(C(C)C)N(C)C(=O)C3(F)CCN(C(=O)C#CC(C)(C)N(C)C)CC3)C(=O)N3CCCC(N3)C(=O)OCC(C)(C)C2)C1 with its measured viability, T/C.
Result block: 14.5

Query block: Annotate the compound CC1(O)CCCC1n1c(=O)c(C(F)F)cc2cnc(NC3CCN(S(C)(=O)=O)CC3)nc21 (configuration not stated) + CCn1c(-c2cccnc2C(C)OC)c2c3cc(ccc31)N1CCOC(CC(NC(=O)C(C(C)C)N(C)C(=O)C3(F)CCN(C(=O)C#CC(C)(C)N(C)C)CC3)C(=O)N3CCCC(N3)C(=O)OCC(C)(C)C2)C1 with its measured viability, T/C.
Result block: 26

Query block: Annotate the compound C[C@@H](NC(=O)c1ncnc(N)c1Cl)c1ncc(C(=O)Nc2cc(C(F)(F)F)c(Cl)cn2)s1 + CCn1c(-c2cccnc2C(C)OC)c2c3cc(ccc31)N1CCOC(CC(NC(=O)C(C(C)C)N(C)C(=O)C3(F)CCN(C(=O)C#CC(C)(C)N(C)C)CC3)C(=O)N3CCCC(N3)C(=O)OCC(C)(C)C2)C1 with its measured viability, T/C.
Result block: 24.6

Query block: Annotate the compound CCC(CC)c1cc(NC2CCC(N)C2)n2nccc2n1 (configuration not stated) + CCn1c(-c2cccnc2C(C)OC)c2c3cc(ccc31)N1CCOC(CC(NC(=O)C(C(C)C)N(C)C(=O)C3(F)CCN(C(=O)C#CC(C)(C)N(C)C)CC3)C(=O)N3CCCC(N3)C(=O)OCC(C)(C)C2)C1 with its measured viability, T/C.
Result block: 14.9
